Give Affinity ELISA pH 7.4 for every item shown.
# subject.of.test: T1, human Ror2 (human, UniProt Q01974 34-403, limits assumed)
# T1 construct: also called hROR2; receptor tyrosine kinase-like orphan receptor 2
# assay.details: ELISA, human Ror2, pH 7.4; further: unit not given here
Field format: numeric only.

Q: Given the entry LC-S092V (antibody, V domains shown) VH: EVQLQQSGPELVKPGASVKISCKTSGYTFTEYTMHWMKQSHRKSLEWIGGINTNNGGTGYNQKFKGKATLTVDKSSSTAYMELRSLTSEDSAVYFCARGSLYSYGNSYFDYWGQGTLVTVSS VL: QIVLTQSPAIMSASPGEKVTITCSATSSVSYMHWFQQKPGTSPKLWIYGTSNLASGVPARFSGSGSGTSYSLTISRMEAEDAATYYCQQRSVYPFTFGQGTKVEIK , report its measured Affinity ELISA pH 7.4.
A: 1.18

Q: Given the entry LC-G049C (antibody, V domains shown) VH: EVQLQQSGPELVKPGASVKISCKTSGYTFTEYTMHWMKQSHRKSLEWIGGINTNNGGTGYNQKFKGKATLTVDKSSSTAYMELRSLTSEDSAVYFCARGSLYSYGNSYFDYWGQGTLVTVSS VL: QIVLTQSPAIMSASPGEKVTITCSATSSVSYMHWFQQKPGTSPKLWIYCTSNLASGVPARFSGSGSGTSYSLTISRMEAEDAATYYCQQRSSYPFTFGQGTKVEIK , report its measured Affinity ELISA pH 7.4.
A: 0.133

Q: Given the entry LC-T096D (antibody, V domains shown) VH: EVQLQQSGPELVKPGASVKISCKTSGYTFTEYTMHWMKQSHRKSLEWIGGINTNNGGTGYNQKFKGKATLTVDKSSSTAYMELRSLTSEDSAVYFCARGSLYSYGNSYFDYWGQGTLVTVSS VL: QIVLTQSPAIMSASPGEKVTITCSATSSVSYMHWFQQKPGTSPKLWIYGTSNLASGVPARFSGSGSGTSYSLTISRMEAEDAATYYCQQRSSYPFDFGQGTKVEIK , report its measured Affinity ELISA pH 7.4.
A: 0.474

From: patent US20200002414A1
